- target_of_assay: UniProt:Q9WU19
- Sequence (Q9WU19 whole entry): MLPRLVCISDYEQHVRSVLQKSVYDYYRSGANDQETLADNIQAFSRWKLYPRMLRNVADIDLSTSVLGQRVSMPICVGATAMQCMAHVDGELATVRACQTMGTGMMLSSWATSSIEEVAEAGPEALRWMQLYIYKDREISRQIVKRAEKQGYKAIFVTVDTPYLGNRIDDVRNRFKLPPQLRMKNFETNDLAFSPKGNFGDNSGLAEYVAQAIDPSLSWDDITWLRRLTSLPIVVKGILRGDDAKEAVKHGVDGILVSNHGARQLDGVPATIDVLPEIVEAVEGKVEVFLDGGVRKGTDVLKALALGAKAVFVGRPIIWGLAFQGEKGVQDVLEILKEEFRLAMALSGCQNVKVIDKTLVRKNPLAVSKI
- method_notes: Non-competitive mixed inhibition of N-terminal His-tagged mouse recombinant glycolate oxidase expressed in Escherichia coli BL21 (DE3) cells assessed as inhibition constant using varying concentration of glycolate as substrate measured every 60 sec for 15 mins by Amplex red and horseradish peroxidase based fluorescence assay
measured_property: Ki
Give the figure together with its unit, number first.

| structure_as_smiles | target_of_assay | Ki |
| --- | --- | --- |
| O=Cc1ccc(-c2ccc(O)c(C(=O)O)c2)o1 | UniProt:Q9WU19 | 7.9 µM |

Okay, next one:
INPUT: Param item = C#CCNCc1ccc(-c2ccc(O)c(C(=O)O)c2)o1.N ; retrieve measured Ki.
OUTPUT: 10.5 µM

###

- target_of_assay: UniProt Q9WU19
- method_notes: Inhibition of N-terminal His-tagged mouse recombinant glycolate oxidase expressed in Escherichia coli BL21 (DE3) cells using glycolate as substrate preincubated for 10 mins followed by substrate addition and measured after 10 mins by Amplex red and horseradish peroxidase based fluorescence assay
measured_property: pIC50
Friendly reminder that pIC50 comes from taking -log10 of the concentration in mol/L.

| structure_as_smiles | pIC50 |
| --- | --- |
| C#CCNCc1ccc(-c2ccc(O)c(C(=O)O)c2)o1.N | 5.09 |
| N.N.O=C(O)c1cc(-c2ccc(CN(Cc3ccccc3)Cc3ccc(-c4ccc(O)c(C(=O)O)c4)o3)o2)ccc1O | 5.74 |
| CCN(CC)CC.O=C(O)c1cc(-c2ccc(CN(Cc3ccccc3)Cc3ccco3)o2)ccc1O | 5.10 |
| C#CCN(Cc1ccc(-c2ccc(O)c(C(=O)O)c2)o1)Cc1ccc(-c2ccc(O)c(C(=O)O)c2)o1.N.N | 6.10 |
| N.O=C(O)c1cc(-c2ccc(CNc3ccc(Br)cc3)o2)ccc1O | 5.51 |

INPUT: Param item = O=Cc1ccc(-c2ccc(O)c(C(=O)O)c2)o1 ; retrieve measured pIC50.
OUTPUT: 4.84

INPUT: Param item = C#CCCCC(=O)Nc1ccc(C(=O)c2ccc(NCc3ccc(-c4ccc(O)c(C(=O)O)c4)o3)cc2)cc1.N ; retrieve measured pIC50.
OUTPUT: 5.89

INPUT: Param item = N.O=C(O)c1cc(-c2ccc(CNc3ccc([N+](=O)[O-])cc3)o2)ccc1O ; retrieve measured pIC50.
OUTPUT: 5.27

###

- Tested on: Hepatocyte
- method_notes: Inhibition of GO/LDHA in hyperoxaluric-primary hepatocyte isolated from Agxt1 knockdown PH1 C57BL/6 mouse assessed as relative oxalate output at 10 uM measured at 48 hrs in the presence of glycolate relative to control
- Type: cell-based
fold change (FC) under 0.5 gets met, anything at or over 0.5 gets not met.

Here are 2 compounds together with their reported answers.
| structure_as_smiles | answer_label |
| --- | --- |
| N.O=C(O)c1cc(-c2ccc(CNc3ccc(Br)cc3)o2)ccc1O | not met |
| C#CCCCC(=O)Nc1ccc(C(=O)c2ccc(NCc3ccc(-c4ccc(O)c(C(=O)O)c4)o3)cc2)cc1.N | not met |

INPUT: For this compound, is fold change (FC) lower than 0.5? N.N.O=C(O)c1cc(-c2ccc(CN(Cc3ccccc3)Cc3ccc(-c4ccc(O)c(C(=O)O)c4)o3)o2)ccc1O
OUTPUT: not met

INPUT: For this compound, is fold change (FC) lower than 0.5? N.O=C(O)c1cc(-c2ccc(CNCc3ccccc3)o2)ccc1O
OUTPUT: not met

INPUT: For this compound, is fold change (FC) lower than 0.5? CCN(CC)CC.O=C(O)c1cc(-c2ccc(CN(Cc3ccccc3)Cc3ccco3)o2)ccc1O
OUTPUT: met

###

- target_of_assay: L-lactate dehydrogenase B chain (Homo sapiens)
- Sequence (P07195 whole entry): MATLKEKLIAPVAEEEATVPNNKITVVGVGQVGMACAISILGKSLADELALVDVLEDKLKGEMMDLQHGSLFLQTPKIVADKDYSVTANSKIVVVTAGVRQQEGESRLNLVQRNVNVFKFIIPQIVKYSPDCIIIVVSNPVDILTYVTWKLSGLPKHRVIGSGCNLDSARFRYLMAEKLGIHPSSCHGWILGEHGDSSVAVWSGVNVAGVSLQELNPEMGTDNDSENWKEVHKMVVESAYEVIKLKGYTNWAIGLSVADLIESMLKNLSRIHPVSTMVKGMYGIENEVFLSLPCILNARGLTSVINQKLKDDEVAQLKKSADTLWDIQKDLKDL
- method_notes: Mixed inhibition of human recombinant LDHB assessed as inhibition constant using varying concentration of pyruvate as substrate preincubated for 10 mins followed by substrate addition and measured every 60 sec for 10 mins in the presence of NADH by fluorescence assay
measured_property: pKi
Friendly reminder that pKi comes from taking -log10 of the concentration in mol/L.

INPUT: Param item = C#CCNCc1ccc(-c2ccc(O)c(C(=O)O)c2)o1.N ; retrieve measured pKi.
OUTPUT: 5.70

###

- target_of_assay: Prostaglandin G/H synthase 1 (Ovis aries, UniProt P05979)
- Sequence (P05979 whole entry): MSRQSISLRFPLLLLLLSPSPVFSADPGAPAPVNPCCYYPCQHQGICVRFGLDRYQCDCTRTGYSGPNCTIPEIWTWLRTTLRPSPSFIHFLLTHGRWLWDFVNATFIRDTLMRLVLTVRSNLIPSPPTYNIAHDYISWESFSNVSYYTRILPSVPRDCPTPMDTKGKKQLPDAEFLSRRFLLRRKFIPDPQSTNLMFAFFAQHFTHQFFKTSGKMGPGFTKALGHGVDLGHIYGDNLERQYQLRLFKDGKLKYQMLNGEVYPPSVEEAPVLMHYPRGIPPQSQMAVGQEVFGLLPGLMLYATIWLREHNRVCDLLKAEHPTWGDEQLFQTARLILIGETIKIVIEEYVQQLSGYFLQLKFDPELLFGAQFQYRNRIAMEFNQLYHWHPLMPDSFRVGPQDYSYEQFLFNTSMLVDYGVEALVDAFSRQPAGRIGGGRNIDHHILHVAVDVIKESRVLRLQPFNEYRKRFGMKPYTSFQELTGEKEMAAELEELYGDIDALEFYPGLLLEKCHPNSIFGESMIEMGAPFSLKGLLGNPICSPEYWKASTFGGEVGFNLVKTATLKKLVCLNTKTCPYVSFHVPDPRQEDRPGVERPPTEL
measured_property: IC50
Give the figure together with its unit, number first.

INPUT: Param item = N.N.O=C(O)c1cc(-c2ccc(CN(Cc3ccccc3)Cc3ccc(-c4ccc(O)c(C(=O)O)c4)o3)o2)ccc1O ; retrieve measured IC50.
OUTPUT: 24 µM
